Where these numbers come from: ChEMBL document CHEMBL4477265

Reported GI50 values follow for various compounds
Tested on: HepG2
assay_overview: Antiproliferative activity against human HepG2 cells after 48 hrs by sulforhodamine B assay
Type: functional
experimental_parameters: HepG2, 48 h
Value expressed in nM; do not type the unit.

See these solved cases before continuing.
compound | system_tested | unit_descriptor | GI50
COc1ccc(-c2ncccc2-c2nc3ccccc3[nH]2)cc1OC | HepG2 | nM | 12400
FC(F)(F)c1ccc(-c2ncccc2-c2nc3ccc(Cl)cc3s2)cc1 | HepG2 | nM | 32500
COc1ccc(-c2ncccc2-c2nc3cc(OC)c(OC)cc3[nH]2)cc1OC | HepG2 | nM | 1900
FC(F)(F)c1ccc(Cl)c(-c2ncccc2-c2nc3ccccc3s2)c1 | HepG2 | nM | 15000
COc1ccc2nc(-c3cccnc3-c3cc(C(F)(F)F)ccc3Cl)[nH]c2c1 | HepG2 | nM | 760

Asked: What value of measured GI50 is listed for COc1ccc2nc(-c3cccnc3-c3ccc(OC)c(OC)c3)[nH]c2c1 ?
Given back: 44800

Asked: Please give the result for COc1ccc(S(=O)(=O)Nc2cccnc2Nc2ccc(O)cc2)cc1 [ABT-751] too.
Given back: 2800

Asked: Please give the result for COc1ccc(-c2ncccc2-c2nc3ccccc3s2)cc1OC too.
Given back: 700

Asked: Please give the result for COc1ccc(-c2ncccc2-c2nc3cc(OC)c(OC)cc3s2)cc1 too.
Given back: 30900

Asked: Please give the result for COc1ccc2nc(-c3cccnc3-c3cc(OC)c(OC)c(OC)c3)sc2c1 too.
Given back: 260

Asked: Please give the result for COc1ccc2nc(-c3cccnc3-c3ccc(OC)c(OC)c3)sc2c1 too.
Given back: 2200
